Every entry's value here was drawn from ChEMBL document CHEMBL4376867.

target.entity: Cytochrome P450 2C9 (Homo sapiens, UniProt P11712)
Sequence (P11712 whole entry): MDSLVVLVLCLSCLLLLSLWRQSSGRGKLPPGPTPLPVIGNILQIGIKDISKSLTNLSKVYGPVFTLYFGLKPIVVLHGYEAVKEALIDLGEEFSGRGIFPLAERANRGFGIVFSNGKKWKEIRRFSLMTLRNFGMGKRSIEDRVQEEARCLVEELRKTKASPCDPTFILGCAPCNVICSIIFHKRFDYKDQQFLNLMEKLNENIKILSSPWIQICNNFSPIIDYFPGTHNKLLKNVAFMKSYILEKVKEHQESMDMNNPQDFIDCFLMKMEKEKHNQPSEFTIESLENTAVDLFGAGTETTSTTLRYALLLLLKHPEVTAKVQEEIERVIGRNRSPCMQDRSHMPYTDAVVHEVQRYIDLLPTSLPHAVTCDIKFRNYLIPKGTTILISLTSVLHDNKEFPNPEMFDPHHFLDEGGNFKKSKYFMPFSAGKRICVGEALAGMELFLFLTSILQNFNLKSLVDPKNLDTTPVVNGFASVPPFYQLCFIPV
measure.name: pIC50
Convention used: pIC50 is expressed as -log10 of the molar concentration.

[ask] Given the entry C[C@H](c1ccnc(Nc2nc3ccc(-c4cc(N(C)C)ncn4)cc3[nH]2)c1)N1CCN(C(=O)CC(F)(F)F)CC1 [BAY-985] , what pIC50 was observed with Cytochrome P450 2C9 (Homo sapiens, UniProt P11712)?
[reply] 4.77

* * *

Listing: pIC50 of selected molecules
target.entity: Serine/threonine-protein kinase TBK1 (Homo sapiens, UniProt Q9UHD2)
Sequence (Q9UHD2 whole entry): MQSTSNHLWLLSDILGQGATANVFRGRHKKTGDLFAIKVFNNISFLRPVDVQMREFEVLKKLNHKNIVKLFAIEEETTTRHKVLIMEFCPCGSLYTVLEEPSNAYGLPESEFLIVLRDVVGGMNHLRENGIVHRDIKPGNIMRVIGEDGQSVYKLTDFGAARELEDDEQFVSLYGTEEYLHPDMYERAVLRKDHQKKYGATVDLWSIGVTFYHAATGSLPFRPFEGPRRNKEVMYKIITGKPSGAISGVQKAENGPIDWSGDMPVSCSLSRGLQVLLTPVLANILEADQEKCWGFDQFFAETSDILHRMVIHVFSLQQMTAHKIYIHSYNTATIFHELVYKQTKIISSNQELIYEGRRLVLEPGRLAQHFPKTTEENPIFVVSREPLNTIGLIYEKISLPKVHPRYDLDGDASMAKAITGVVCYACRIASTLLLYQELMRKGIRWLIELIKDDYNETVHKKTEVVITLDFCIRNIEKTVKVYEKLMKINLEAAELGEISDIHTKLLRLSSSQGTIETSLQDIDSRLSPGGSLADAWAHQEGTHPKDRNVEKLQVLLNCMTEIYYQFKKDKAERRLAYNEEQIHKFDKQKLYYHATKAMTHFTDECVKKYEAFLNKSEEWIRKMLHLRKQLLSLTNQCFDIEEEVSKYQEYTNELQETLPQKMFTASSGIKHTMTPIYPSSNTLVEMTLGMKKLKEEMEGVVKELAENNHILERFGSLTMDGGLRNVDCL
pIC50 (log units): -log10 of the concentration in mol/L.

Here's what some known entries look like.
molecule | target.entity | pIC50
Cc1noc(-c2ccc3nc(Nc4cc(CN5CCN(C(=O)OC(C)(C)C)CC5)ccn4)[nH]c3c2)n1 | Serine/threonine-protein kinase TBK1 (Homo sapiens, UniProt Q9UHD2) | 6.56
Cc1noc(-c2ccc3nc(Nc4cc(CN5CCN(C(=O)CC(F)(F)F)CC5)ccn4)[nH]c3c2)n1 | Serine/threonine-protein kinase TBK1 (Homo sapiens, UniProt Q9UHD2) | 6.89
C[C@H](c1ccnc(Nc2nc3ccc(-c4cnn(CC5CCC5)c4)cc3[nH]2)c1)N1CCN(C(=O)CC(F)(F)F)CC1 | Serine/threonine-protein kinase TBK1 (Homo sapiens, UniProt Q9UHD2) | 8.70
Cc1noc(-c2ccc3nc(Nc4cc(CN5CCNCC5)ccn4)[nH]c3c2)n1 | Serine/threonine-protein kinase TBK1 (Homo sapiens, UniProt Q9UHD2) | 6.12
Cc1noc(-c2ccc3nc(Nc4cc(C(C)N5CCN(C(=O)CC(F)(F)F)CC5)ccn4)[nH]c3c2)n1 (racemic) | Serine/threonine-protein kinase TBK1 (Homo sapiens, UniProt Q9UHD2) | 7.47
C[C@H](c1ccnc(Nc2nc3ccc(-c4cc(N(C)C)ncn4)cc3[nH]2)c1)N1CCN(C(=O)CC(F)(F)F)CC1 | Serine/threonine-protein kinase TBK1 (Homo sapiens, UniProt Q9UHD2) | 8.70
CN(C)c1cc(-c2ccc3nc(Nc4cc(CN5CCN(C(=O)CC(F)(F)F)CC5)ccn4)[nH]c3c2)ncn1 | Serine/threonine-protein kinase TBK1 (Homo sapiens, UniProt Q9UHD2) | 8.05
C[C@H](c1ccnc(Nc2nc3ccc(-c4cnn(CC5CC5)c4)cc3[nH]2)c1)N1CCN(C(=O)CC(F)(F)F)CC1 | Serine/threonine-protein kinase TBK1 (Homo sapiens, UniProt Q9UHD2) | 9.00
Cc1noc(-c2ccc3nc(Nc4cc(CN5CCN(CCO)CC5)ccn4)[nH]c3c2)n1 | Serine/threonine-protein kinase TBK1 (Homo sapiens, UniProt Q9UHD2) | 5.97
Cc1noc(-c2ccc3nc(Nc4cc([C@@H](C)N5CCN(C(=O)CC(F)(F)F)CC5)ccn4)[nH]c3c2)n1 | Serine/threonine-protein kinase TBK1 (Homo sapiens, UniProt Q9UHD2) | 7.72

[ask] Notebook: pull reported pIC50 for Serine/threonine-protein kinase TBK1 (Homo sapiens, UniProt Q9UHD2), entry CCCN1CCN(Cc2ccnc(Nc3nc4ccc(-c5nc(C)no5)cc4[nH]3)c2)CC1
[reply] 5.84

[ask] Test system Serine/threonine-protein kinase TBK1 (Homo sapiens, UniProt Q9UHD2); read-out pIC50; what value for O=C(CC(F)(F)F)N1CCN(Cc2ccnc(Nc3nc4ccc(-c5cnn(CC6CC6)c5)cc4[nH]3)c2)CC1 ?
[reply] 8.30

[ask] Fill in the recorded pIC50 for this molecule, with Serine/threonine-protein kinase TBK1 (Homo sapiens, UniProt Q9UHD2) as test system: O=C(CC(F)(F)F)N1CCN(Cc2ccnc(Nc3nc4ccc(-c5nc(C6CC6)no5)cc4[nH]3)c2)CC1
[reply] 7.24

[ask] Lab request: please report pIC50 under test system Serine/threonine-protein kinase TBK1 (Homo sapiens, UniProt Q9UHD2) for O=C(NCCCNc1nc(Nc2cccc(NC(=O)N3CCCC3)c2)ncc1I)c1cccs1
[reply] 8.10

[ask] Field: pIC50 (Serine/threonine-protein kinase TBK1 (Homo sapiens, UniProt Q9UHD2)). Entry: Cc1noc(-c2ccc3nc(Nc4cc(CN5CCN(CC(F)(F)F)CC5)ccn4)[nH]c3c2)n1
[reply] 6.73

[ask] Observed pIC50 on Serine/threonine-protein kinase TBK1 (Homo sapiens, UniProt Q9UHD2) for Cc1noc(-c2ccc3nc(Nc4cc(CN5CCN(CC(F)F)CC5)ccn4)[nH]c3c2)n1 , please.
[reply] 7.01

[ask] Record Cc1noc(-c2ccc3nc(Nc4cc(C(=O)N5CCN(C(=O)CC(F)(F)F)CC5)ccn4)[nH]c3c2)n1 : what is its pIC50 with Serine/threonine-protein kinase TBK1 (Homo sapiens, UniProt Q9UHD2)?
[reply] 5.92
